Entry source: patent US8580747B2

Molecular target: NEP (neutral endopeptidase) (Homo sapiens, UniProt P08473)
Construct: purchased R&D Systems, Minneapolis, Minn; 1182-ZN
Sequence (P08473 52-750 limits assumed): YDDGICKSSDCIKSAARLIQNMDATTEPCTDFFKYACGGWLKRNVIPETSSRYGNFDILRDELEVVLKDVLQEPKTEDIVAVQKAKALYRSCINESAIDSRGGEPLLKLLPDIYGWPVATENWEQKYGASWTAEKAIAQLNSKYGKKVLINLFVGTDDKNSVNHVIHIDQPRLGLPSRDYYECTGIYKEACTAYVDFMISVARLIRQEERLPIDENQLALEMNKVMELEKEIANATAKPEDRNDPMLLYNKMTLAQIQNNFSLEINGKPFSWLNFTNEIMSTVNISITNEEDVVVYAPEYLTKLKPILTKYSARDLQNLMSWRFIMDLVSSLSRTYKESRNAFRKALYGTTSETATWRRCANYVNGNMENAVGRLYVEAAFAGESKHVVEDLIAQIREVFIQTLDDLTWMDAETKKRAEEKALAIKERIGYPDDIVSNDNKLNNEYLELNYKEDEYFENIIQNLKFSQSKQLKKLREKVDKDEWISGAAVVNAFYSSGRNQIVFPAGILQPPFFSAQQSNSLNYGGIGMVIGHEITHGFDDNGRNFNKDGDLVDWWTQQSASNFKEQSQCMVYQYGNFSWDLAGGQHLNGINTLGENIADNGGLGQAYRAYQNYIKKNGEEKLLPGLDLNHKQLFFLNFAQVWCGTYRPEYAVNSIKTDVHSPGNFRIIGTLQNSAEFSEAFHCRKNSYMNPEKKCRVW
Test: hNEP resistance assay (digestion by neutral endopeptidase)
Assay type: in vitro ADME
Conditions: human recombinant NEP (neutral endopeptidase), pH 7.4; incubation with human recombinant NEP at 37° C., 1 h; read-out: hNEP % of Starting Material 1 h
Bridge positions count the residues as written; N and C are the ends. Square brackets hold non-standard residues; d marks the D form. Peptide text beside a SMILES is read from it. * marks the point of attachment. Piperazin2one(3S-Bu,6R-CO) = CCCC[C@@H]1NC[C@H](C(=O)*)NC1=O; X1 = N=C(N)NCCC[C@H]1C(=O)N[C@@H](C(N)=O)CN1*; Nle = CCCC[C@H](N)C(=O)O; Orn = NCCC[C@H](N)C(=O)O
Measurement Kind: remaining at 1 h, 50 µM (%)
Output spec: scalar in %, unitless text.

1. CCCC[C@@H]1NC[C@H](C(=O)N[C@H]2CSSC[C@@H](C(=O)N[C@@H](Cc3ccc(O)cc3)C(=O)N3C[C@H](C(N)=O)NC(=O)[C@@H]3CCCNC(=N)N)NC(=O)[C@H](CO)NC(=O)[C@H]([C@@H](C)CC)NC(=O)[C@H](CCCNC(=N)N)NC(=O)[C@H](CC(=O)O)NC(=O)[C@H](CCCC)NC(=O)[C@H](CCCN)NC(=O)CNC(=O)CNC(=O)[C@H](Cc3ccccc3)NC(=O)[C@H](Cc3c[nH]cn3)NC2=O)NC1=O [1-54] ({Piperazin2one(3S-Bu,6R-CO)}-CHFGG[Orn][Nle]DRISCY-X1; disulfide 1-12) : 85

Which remaining at 1 h, 50 µM is listed for CCCC[C@@H]1NC[C@H](C(=O)N[C@H]2CSSC[C@@H](C(=O)N[C@@H](Cc3ccc(O)cc3)C(=O)N3C[C@H](C(N)=O)NC(=O)[C@@H]3CCCNC(=N)N)NC(=O)[C@H](CO)NC(=O)[C@H]([C@@H](C)CC)NC(=O)[C@H](CCCN)NC(=O)[C@H](CC(=O)O)NC(=O)[C@H](CCCC)NC(=O)[C@H](CCCNC(=N)N)NC(=O)CNC(=O)CNC(=O)[C@H](Cc3ccccc3)NC(=O)[C@H](Cc3c[nH]cn3)NC2=O)NC1=O [1-55] ({Piperazin2one(3S-Bu,6R-CO)}-CHFGGR[Nle]D[Orn]ISCY-X1; disulfide 1-12) ?
83

Which remaining at 1 h, 50 µM is listed for CCCC[C@@H]1NC[C@H](C(=O)N[C@H]2CSSC[C@@H](C(=O)N[C@@H](Cc3ccc(O)cc3)C(=O)N3C[C@H](C(N)=O)NC(=O)[C@@H]3CCCNC(=N)N)NC(=O)[C@H](CO)NC(=O)[C@H]([C@@H](C)CC)NC(=O)[C@H](C)NC(=O)[C@H](CC(=O)O)NC(=O)[C@H](CCCC)NC(=O)[C@H](C)NC(=O)CNC(=O)CNC(=O)[C@H](Cc3ccccc3)NC(=O)[C@H](Cc3c[nH]cn3)NC2=O)NC1=O [1-100] ({Piperazin2one(3S-Bu,6R-CO)}-CHFGGA[Nle]DAISCY-X1; disulfide 1-12) ?
6

====

Settings: rat, in vivo, iv, 2 mg/kg
Bridge positions count the residues as written; N and C are the ends. Square brackets hold non-standard residues; d marks the D form. Peptide text beside a SMILES is read from it. * marks the point of attachment. Piperazin2one(3S-Bu,6R-CO) = CCCC[C@@H]1NC[C@H](C(=O)*)NC1=O; X1 = N=C(N)NCCC[C@H]1C(=O)N[C@@H](C(N)=O)CN1*; Heptanoyl = CCCCCCC(=O)*; Nle = CCCC[C@H](N)C(=O)O
Measurement Kind: Vd (L/kg)
Output spec: scalar in L/kg, unitless text.

1) CCCC[C@@H]1NC[C@H](C(=O)N[C@H]2CSSC[C@@H](C(=O)N[C@@H](Cc3ccc(O)cc3)C(=O)N3C[C@H](C(N)=O)NC(=O)[C@@H]3CCCNC(=N)N)NC(=O)[C@H](CO)NC(=O)[C@H]([C@@H](C)CC)NC(=O)[C@@H](CCCNC(=N)N)NC(=O)[C@H](CC(=O)O)NC(=O)[C@H](CCCC)NC(=O)[C@H](CCCNC(=N)N)NC(=O)CNC(=O)CNC(=O)[C@H](Cc3ccccc3)NC(=O)[C@H](Cc3c[nH]cn3)NC2=O)NC1=O [1-45] ({Piperazin2one(3S-Bu,6R-CO)}-CHFGGR[Nle]D[dR]ISCY-X1; disulfide 1-12) : 0.3
2) CCCCCCC(=O)N[C@H]1CSSC[C@@H](C(=O)N[C@@H](Cc2ccc(O)cc2)C(=O)N2C[C@H](C(N)=O)NC(=O)[C@@H]2CCCNC(=N)N)NC(=O)[C@H](CO)NC(=O)[C@H]([C@@H](C)CC)NC(=O)[C@H](CCCNC(=N)N)NC(=O)[C@H](CC(=O)O)NC(=O)[C@H](CCCC)NC(=O)[C@H](CCCNC(=N)N)NC(=O)CNC(=O)CNC(=O)[C@H](Cc2ccccc2)NC(=O)[C@H](Cc2c[nH]cn2)NC1=O [1-63] (Heptanoyl-CHFGGR[Nle]DRISCY-X1; disulfide 1-12) : 4.6
3) CCCC[C@@H]1NC[C@H](C(=O)N[C@H]2CSSC[C@@H](C(=O)N[C@@H](Cc3ccc(O)cc3)C(=O)N3C[C@H](C(N)=O)NC(=O)[C@@H]3CCCNC(=N)N)NC(=O)[C@H](CO)NC(=O)[C@H]([C@@H](C)CC)NC(=O)[C@H](CCCNC(=N)N)NC(=O)[C@H](CC(=O)O)NC(=O)[C@H](CCCC)NC(=O)[C@@H](CCCNC(=N)N)NC(=O)CNC(=O)CNC(=O)[C@H](Cc3ccccc3)NC(=O)[C@H](Cc3c[nH]cn3)NC2=O)NC1=O [1-42] ({Piperazin2one(3S-Bu,6R-CO)}-CHFGG[dR][Nle]DRISCY-X1; disulfide 1-12) : 0.7

// below: Vd requested for another compound
Which Vd is listed for CCCC[C@@H]1NC[C@H](C(=O)N[C@H]2CSSC[C@@H](C(=O)N[C@@H](Cc3ccc(O)cc3)C(=O)N3C[C@H](C(N)=O)NC(=O)[C@@H]3CCCNC(=N)N)NC(=O)[C@H](CO)NC(=O)[C@H]([C@@H](C)CC)NC(=O)[C@H](CCCNC(=N)N)NC(=O)[C@@H](CC(=O)O)NC(=O)[C@H](CCCC)NC(=O)[C@H](CCCNC(=N)N)NC(=O)CNC(=O)CNC(=O)[C@H](Cc3ccccc3)NC(=O)[C@H](Cc3c[nH]cn3)NC2=O)NC1=O [1-44] ({Piperazin2one(3S-Bu,6R-CO)}-CHFGGR[Nle][dD]RISCY-X1; disulfide 1-12) ?
0.4
